Catalogue of compounds with associated IC50
# Tested on: Raji cells, CD33-non-expressing
# protocol-summary: In vitro cell assay, cell viability by MTS, Raji
# Type: cell-based
# run-parameters: Homo sapiens, 96 h, read-out: Average IC50, Raji
Dear colleague, please send the value followed by its unit.

CCN[C@H]1CO[C@@H](O[C@H]2[C@H](O[C@H]3C#C/C=C\C#C[C@]4(O)CC(=O)C(NC(=O)OC)=C3/C4=C\CSSC(C)(C)CCN)O[C@H](C)[C@@H](NO[C@H]3C[C@H](O)[C@H](SC(=O)c4c(C)c(I)c(O[C@@H]5O[C@@H](C)[C@H](O)[C@@H](OC)[C@H]5O)c(OC)c4OC)[C@@H](C)O3)[C@@H]2O)C[C@@H]1OC [Example P8] ... 0.028 nM
CCN[C@H]1CO[C@@H](O[C@H]2[C@H](O[C@H]3C#C/C=C\C#C[C@]4(O)CC(=O)C(NC(=O)OC)=C3/C4=C\CSSC(C)(C)[C@H](N)C(=O)O)O[C@H](C)[C@@H](NO[C@H]3C[C@H](O)[C@H](SC(=O)c4c(C)c(I)c(O[C@@H]5O[C@@H](C)[C@H](O)[C@@H](OC)[C@H]5O)c(OC)c4OC)[C@@H](C)O3)[C@@H]2O)C[C@@H]1OC [Example P33] ... 0.261 nM
CCN[C@H]1CO[C@@H](O[C@H]2[C@H](O[C@H]3C#C/C=C\C#C[C@]4(O)CC(=O)C(NC(=O)OC)=C3/C4=C\CSSC(C)C)O[C@H](C)[C@@H](NO[C@H]3C[C@H](O)[C@H](SC(=O)c4c(C)c(I)c(O[C@@H]5O[C@@H](C)[C@H](O)[C@@H](OC)[C@H]5O)c(OC)c4OC)[C@@H](C)O3)[C@@H]2O)C[C@@H]1OC [Example P1] ... 0.006 nM
CCN[C@H]1CO[C@@H](O[C@H]2[C@H](O[C@H]3C#C/C=C\C#C[C@]4(O)CC(=O)C(NC(=O)OC)=C3/C4=C\CSSC3CCNCC3)O[C@H](C)[C@@H](NO[C@H]3C[C@H](O)[C@H](SC(=O)c4c(C)c(I)c(O[C@@H]5O[C@@H](C)[C@H](O)[C@@H](OC)[C@H]5O)c(OC)c4OC)[C@@H](C)O3)[C@@H]2O)C[C@@H]1OC [Example P16] ... 0.077 nM
CCN[C@H]1CO[C@@H](O[C@@H]2C(O)[C@H](NO[C@H]3C[C@H](O)[C@H](SC(=O)c4c(C)c(I)c(O[C@@H]5O[C@@H](C)[C@H](O)[C@@H](OC)[C@H]5O)c(OC)c4OC)[C@@H](C)O3)[C@@H](C)O[C@H]2O[C@H]2C#C/C=C\C#C[C@]3(O)CC(=O)C(NC(=O)OC)=C2/C3=C\CSS[C@H](C)CO)C[C@@H]1OC (stereo in doubt) [Example P47] ... 0.05 nM

// IC50 lookup, key: CCNC1COC(OC2C(OC3C#C/C=C\C#C[C@]4(O)CC(=O)C(NC(=O)OC)=C3/C4=C\CSSC3CC3)OC(C)C(NOC3CC(O)C(SC(=O)c4c(C)c(I)c(OC5OC(C)C(O)C(OC)C5O)c(OC)c4OC)C(C)O3)C2O)CC1OC (stereo in doubt) [Example P18]
0.003 nM

Cited source: patent US20240409573A1
